Assayed System: GluA1/2 (Homo sapiens, UniProt P42261+P42262)
Construct: expressed in transfected cells; host or cells: HEK293T
Sequence (P42261 19-906 isoform P42261-2 limits assumed): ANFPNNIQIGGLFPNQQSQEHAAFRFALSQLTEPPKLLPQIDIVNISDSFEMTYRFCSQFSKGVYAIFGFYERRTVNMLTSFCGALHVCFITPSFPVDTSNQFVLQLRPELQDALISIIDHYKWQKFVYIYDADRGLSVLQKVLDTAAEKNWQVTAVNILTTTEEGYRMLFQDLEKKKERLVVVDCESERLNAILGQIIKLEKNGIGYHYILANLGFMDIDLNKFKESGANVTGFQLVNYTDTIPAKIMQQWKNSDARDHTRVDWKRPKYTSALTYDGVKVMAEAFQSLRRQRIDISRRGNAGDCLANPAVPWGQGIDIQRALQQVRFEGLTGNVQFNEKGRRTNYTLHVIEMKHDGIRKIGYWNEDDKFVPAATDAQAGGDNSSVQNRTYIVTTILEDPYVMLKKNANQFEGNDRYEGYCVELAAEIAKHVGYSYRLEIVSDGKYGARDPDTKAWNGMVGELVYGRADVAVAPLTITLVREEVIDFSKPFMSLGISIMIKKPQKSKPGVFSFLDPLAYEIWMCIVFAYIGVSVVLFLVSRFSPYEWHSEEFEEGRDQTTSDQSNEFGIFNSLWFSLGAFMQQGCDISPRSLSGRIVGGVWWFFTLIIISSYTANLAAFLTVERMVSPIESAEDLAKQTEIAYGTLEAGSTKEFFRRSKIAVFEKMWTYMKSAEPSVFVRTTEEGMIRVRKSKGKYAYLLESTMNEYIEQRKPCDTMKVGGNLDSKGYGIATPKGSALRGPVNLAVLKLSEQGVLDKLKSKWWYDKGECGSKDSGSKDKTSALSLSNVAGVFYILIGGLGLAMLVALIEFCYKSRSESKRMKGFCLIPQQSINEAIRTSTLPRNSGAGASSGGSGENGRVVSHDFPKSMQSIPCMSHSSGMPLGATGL
Sequence (P42262 25-883 isoform P42262-2 limits assumed): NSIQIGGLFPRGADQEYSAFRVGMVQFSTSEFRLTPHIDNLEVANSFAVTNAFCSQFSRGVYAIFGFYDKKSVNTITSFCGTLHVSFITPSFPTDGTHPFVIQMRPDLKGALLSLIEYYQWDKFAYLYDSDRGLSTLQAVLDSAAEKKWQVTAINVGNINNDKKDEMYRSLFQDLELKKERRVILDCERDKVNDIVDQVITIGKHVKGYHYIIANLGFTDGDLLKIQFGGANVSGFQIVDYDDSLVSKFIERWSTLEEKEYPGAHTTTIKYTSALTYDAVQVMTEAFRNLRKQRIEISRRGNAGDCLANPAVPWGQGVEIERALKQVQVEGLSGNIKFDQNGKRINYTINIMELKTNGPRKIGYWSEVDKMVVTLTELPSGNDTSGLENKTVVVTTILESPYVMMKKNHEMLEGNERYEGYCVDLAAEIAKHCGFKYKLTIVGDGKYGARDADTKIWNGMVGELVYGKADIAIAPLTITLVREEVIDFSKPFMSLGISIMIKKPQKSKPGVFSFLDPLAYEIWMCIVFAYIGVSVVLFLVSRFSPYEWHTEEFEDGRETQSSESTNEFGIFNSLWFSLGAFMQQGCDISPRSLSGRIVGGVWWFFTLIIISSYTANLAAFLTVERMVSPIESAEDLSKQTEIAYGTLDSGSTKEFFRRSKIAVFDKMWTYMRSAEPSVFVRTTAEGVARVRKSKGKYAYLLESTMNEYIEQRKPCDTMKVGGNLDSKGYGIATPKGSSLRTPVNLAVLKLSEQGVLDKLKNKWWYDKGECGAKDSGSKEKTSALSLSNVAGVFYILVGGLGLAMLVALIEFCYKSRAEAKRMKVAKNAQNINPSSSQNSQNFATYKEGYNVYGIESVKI
Assay Text: Whole-cell patch-clamp recordings of heteromeric GluA1/2 AMPAR in transfected HEK293T cells
Format: cell-based
Experimental Parameters: 10 mM glutamate alone after 20 s wash following the TC compound, n = 10
Procedure: The effect of five TC compounds on whole-cell currents of four AMPAR subunits (GluA1, GluA1/2, GluA2, and GluA2/3) was investigated using transfected HEK293T cells. […] The A/AI ratio was calculated to compare the results, where A represents normalized current readings and AI indicates the inhibited current following TC compound exposure. […] HEK293T cells were recorded for 36–48 h, at a temperature of 22 °C, with a membrane potential of −60 mV. […]
Reported Amplitude, applying glutamate alone after TC compound values for the following compounds.
Result Type: Amplitude, applying glutamate alone after TC compound (pA)

[
  {
    "Chemical String": "COc1ccc(-c2nc(C(=O)Nc3cc(OC)c(OC)c(OC)c3)cs2)cc1",
    "Assay Value": 597
  },
  {
    "Chemical String": "COc1ccc(-c2nc(C(=O)Nc3ccc(C(C)(C)C)cc3)cs2)cc1",
    "Assay Value": 609
  },
  {
    "Chemical String": "COc1ccc(-c2nc(C(=O)Nc3cc(OC)ccc3OC)cs2)cc1",
    "Assay Value": 553
  },
  {
    "Chemical String": "COc1ccc(-c2nc(C(=O)Nc3ccc(OC)c(OC)c3)cs2)cc1",
    "Assay Value": 604
  },
  {
    "Chemical String": "COc1ccc(-c2nc(C(=O)Nc3ccccc3)cs2)cc1",
    "Assay Value": 565
  }
]

src = paper PMC11243149
